tested on: KM12 colon; test: NCI-60 one-dose screen, 48 h; conditions: 10 µM unless noted
Compounds without any hit were thinned out: in the full panel of roughly 83,000, 20% have a hit. The source made the active and inactive calls. How the source made its calls: active means growth percent below 10; inactive means the rest.
Choose one outcome from this list and give only that: 1 = active, -1 = inactive

Record request — test call for "COc1ccc(/C=C(\C#N)C(=O)Nc2cccc(Nc3nc(SC)nc(-c4cccc([N+](=O)[O-])c4)c3C#N)c2)cc1OC"
-1

Could you please tell me the result logged for Cc1ccc2oc(=O)cc(C3c4ccc([nH]4)C(c4cc(=O)oc5ccc(C)cc45)c4ccc([nH]4)C(c4cc(=O)oc5ccc(C)cc45)c4ccc([nH]4)C(c4cc(=O)oc5ccc(C)cc45)c4ccc3[nH]4)c2c1 (centres undefined) in this assay?
1

----------
tested on: A498 renal; assay: NCI-60 one-dose screen, 48 h (100 = growth as untreated, 0 = no growth, -100 = all killed); details: 10 µM unless noted
About 83,000 compounds went through this panel and 20% of them were active in at least one assay; those are over-represented in the sample as a whole.
Consider the following molecules; for each one, report its growth.
Give bare numbers, in %.

Past entries and their recorded results:
Smiles Str: Cc1nn(-c2ccc(F)cc2)c2ncnc(Oc3ccc(NC(=O)Nc4ccc(Cl)c(C(F)(F)F)c4)cc3)c12
Unit: %
Measured Value: 99.2
//
Smiles Str: COc1ccc(-c2nc3cc(C(=O)Nc4cc(OC)c(OC)c(OC)c4)ccc3n2C2CCCCC2)cc1
Unit: %
Measured Value: 113

Please report growth for every entry that follows.
1. O=C(O)c1ccc(NC(=O)c2ccc(-c3cccc([N+](=O)[O-])c3)o2)cc1
2. N#CCCN=Nc1c(O)[nH]c2ccc(F)cc12
3. CNC(=O)c1cc(Oc2ccc(NC(=O)Nc3ccc(Cl)c(SC)c3)c(F)c2)ccn1

1: 110; 2: 75.8; 3: 41.3

----------
test system: NCI/ADR-RES ovarian; test: NCI-60 one-dose screen, 48 h; conditions: 10 µM unless noted
This is part of a sample that, as a whole, favours compounds with a hit. Of some 83,000 tested, about 20% had one in any assay. Calls of active or inactive are those of the source. The calls were made as follows: active = growth percent below 10; inactive = the rest.
Output constraint: value belongs to active, inactive

The examples below pair each entry with its known result.
Molecule: COC(=O)[C@@H]1CCCN1C(=O)[C@@H]1CCCN1C(=O)[C@H](Cc1ccccc1)NC(=S)Nc1cc(C(F)(F)F)cc(C(F)(F)F)c1
Class Assignment: inactive
//
Molecule: O=C1NC(=O)C(c2ccc(Cl)cc2Cl)N1 (centres undefined)
Class Assignment: inactive

What classification did "CCCCC/C(C=C(C#N)C#N)=C/c1ccccc1" end up with in this test?
inactive

Fill in: this test's call for Cc1cc(N2CCN(C)CC2)nc(NC2CCCC(Nc3ccnc4cc(Cl)ccc34)C2)n1 (centres undefined) is ___
inactive

----------
test system: MCF7 breast; assay: NCI-60 one-dose screen, 48 h (100 = growth as untreated, 0 = no growth, -100 = all killed); conditions: 10 µM unless noted
Compounds without any hit were thinned out: in the full panel of roughly 83,000, 20% have a hit.
Note to self: values exactly at 60% are MET. So growth at or above 60% is MET, below is NOT MET.

Compound: CN(Cc1cc(Cl)cc(Cl)c1O)Cc1cc(Cl)cc(Cl)c1O
Class Assignment: MET
--
Compound: Cc1cn2c(/C=C3/C(=O)Nc4c3ccc3ccccc43)c(C(F)(F)F)nc2s1
Class Assignment: NOT MET
--
Compound: CN1CCN(c2nc(NCCCNc3ccnc4cc(Cl)ccc34)c3ccccc3n2)CC1
Class Assignment: NOT MET
--
Compound: CC(=O)O[C@H]1[C@@H]2OC(=O)C(CSc3ccccc3)[C@@H]2C[C@H]2O[C@]2(C)CC/C=C(\C)CCC[C@@H]1C (stereo not given in full)
Class Assignment: NOT MET
--
Compound: Cn1cc(C(=O)c2nc(-c3c[nH]c4ccc(Br)cc34)no2)c2cc(F)ccc21
Class Assignment: MET

Could you tell me if the measured growth of COc1ccc(C2Nc3c(c(C(C)(C)C)nn3-c3ccccc3)C(=O)CS2)cc1 (stereo not given) reaches 60% or more?
MET

Hi, just wondering whether "O=C(O)c1c(=O)cccc2ssc12" shows growth of 60% or higher.
NOT MET

Is it the case that "O=C(N/N=C/c1c[nH]c2ccccc12)c1cc(-c2ccccc2)on1" has growth reaching or exceeding 60%?
MET

Where these numbers come from: PubChem BioAssay (NCI)
